# TESTED TARGET: T1, CT receptor of human breast tumor cell lines T-47D and MCF-7 (human, UniProt P30988 25-474)
# T1 construct: whole, on cells; Native receptor; also called calcitonin receptor
# T1 sequence (looked up): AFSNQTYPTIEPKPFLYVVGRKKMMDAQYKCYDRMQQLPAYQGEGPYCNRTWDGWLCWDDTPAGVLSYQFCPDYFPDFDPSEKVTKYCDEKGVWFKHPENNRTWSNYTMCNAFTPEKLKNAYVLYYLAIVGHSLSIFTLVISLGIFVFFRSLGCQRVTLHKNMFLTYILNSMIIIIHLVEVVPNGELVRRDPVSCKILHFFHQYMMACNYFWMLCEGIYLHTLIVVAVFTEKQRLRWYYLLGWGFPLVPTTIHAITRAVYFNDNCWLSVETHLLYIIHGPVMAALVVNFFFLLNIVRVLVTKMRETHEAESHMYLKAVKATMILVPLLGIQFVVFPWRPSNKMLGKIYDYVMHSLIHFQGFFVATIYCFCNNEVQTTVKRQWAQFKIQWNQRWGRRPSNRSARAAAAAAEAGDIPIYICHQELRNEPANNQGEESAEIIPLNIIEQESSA
# ASSAY NOTES: displacement of 125I-salmon CT, whole T-47D cells
Starred links: 1 amine or outer side, 2 acyl side, 3 side chain; linkers in the order of their positions; H or OH if unused. Positions of bridges follow the written chain, without caps; N, C: chain ends. Non-standard residues stand in square brackets, D forms with d. Groups on a side chain read outwards from the residue. Hhc = homohomocysteine, O=C([C@H](CCCS[*:3])N[*:1])[*:2]; Asu = N[C@@H](CCCCCC(=O)O)C(=O)O; hCys = N[C@@H](CCS)C(=O)O
The binders listed here are annotated with their IC50.

BINDER	IC50
{CH2CO}-SNLSTCVLGKLSC([CH2CO-βDap-Lys-Cys-Lys-NH2])ELHKLQTYPRTNTGSGTP-NH2 (thioether N-6; also: ReO complex, Oxorhenium complex; also called Peptide 13 ReO complex) [CH2CO.SNLST.Cys.VLGKLSC(CH2CO.(β-Dap)KCK.amide)ELHKLQTYPRTNTGSGTP.amide•ReO]	2.9 nM
{CH2CO}-SNLST[hCys]VLGKLSC([CH2CO-βDap-Lys-Cys-Lys-NH2])ELHKLQTYPRTNTGSGTP-NH2 (thioether N-6; also: ReO complex of chelator on Cys13, Oxorhenium complex; also called Peptide 9 ReO complex) [CH2CO.SNLST.Hcy.VLGKLSC(CH2CO.(β-Dap)KCK.amide)ELHKLQTYPRTNTGSGTP.amide•ReO]	0.84 nM
{CH2CO}-SNLST[Hhc]VLGKLSC([CH2CO-βDap-Lys-Cys-Lys-NH2])ELHKLQTYPRTNTGSGTP-NH2 (thioether N-6, also called Peptide 5) [CH2CO.SNLST.Hhc.VLGKLSC(CH2CO.(β-Dap)KCK.amide)ELHKLQTYPRTNTGSGTP.amide]	0.42 nM
SNLST[Asu]VLGKLSC([CH2CO-βDap-Lys-Cys-Lys-NH2])ELHKLQTYPRTNTGSGTP-NH2 (lactam N-6; also: ReO complex of chelator on Cys13, Oxorhenium complex; also called Peptide 16 ReO complex) [SNLST.Asu.VLGKLSC(CH2CO.(β-Dap)KCK.amide)ELHKLQTYPRTNTGSGTP.amide•ReO]	2.7 nM
